# EXPERIMENT SUMMARY: NCI Yeast Anticancer Drug Screen. Data for the rad50 strain (AID 155);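 note: 0% = growth of vehicle-only cultures of the same strain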
# EXPERIMENTAL SETUP: S. cerevisiae rad50 strain growth inhibition; at 50.0 µM; stronger effect = higher value
About 79,000 compounds went through this panel and 15% of them were active in at least one assay; those are over-represented in the sample as a whole.
QUANTITY KIND: growth inhibition (%)
Give bare numbers, in %.

Would you please look over these solved cases?
COMPOUND	UNIT TAG	growth inhibition
CSc1nc(NC2OCC(O)C(O)C2O)cc(=O)n1C (stereo unspecified)	%	7.25
CC1CN(N)C(=O)O1 (stereo unspecified)	%	-3.9
COc1ccc2nc(NC(=O)C(=O)C(C#N)c3ccc(CC#N)cc3)sc2c1 (stereo unspecified)	%	-4.3
NS(=O)(=O)c1ccc(N2C(=O)C(=O)N(c3ccccc3)C2=S)cc1	%	-15.8
CC1OC(c2ccc(Cl)cc2Cl)OC1C (stereo unspecified)	%	6.45

Kindly give each listed record's growth inhibition.
1. CC(=O)Nc1cccnc1
2. O=C(c1ccccc1)c1ccccc1
3. CCOC(=O)Cc1csc(NC(NC(=O)OCC)(C(=O)OCC)C(F)(F)F)n1 (stereo unspecified)
4. COc1cc(NCc2ccc3c(c2)OCO3)c([N+](=O)[O-])cc1OC
5. O=S1(=O)CCCC1C(O)c1ccccc1 (stereo unspecified)
6. N#Cc1cc([N+](=O)[O-])ccc1NC(=O)/C(=N\NC(=O)c1ccncc1)C(c1cnc2ccc([N+](=O)[O-])cc2n1)[N+](=O)[O-] (stereo unspecified)

Resp:
[-18.1, 23.9, 2.4, 5.15, 13.8, 8.6]

Kindly give each listed record's growth inhibition.
1. O=C1c2ccccc2C(=O)N1C1CCCCC1
2. CCOC(=O)CCCN1CCC=C(C#N)C1
3. Cc1cccc(C(N)=O)c1

Resp:
[7.15, 13, 22.6]

Kindly give each listed record's growth inhibition.
1. CC(C)(S)CNCCSC(=O)c1ccccc1
2. COc1cccc2c1c1ccc3c(c1n2C)C(=O)C=CC3=O
3. Cc1cc2c(c3ccccc13)C(O)c1ccccc1-2 (stereo unspecified)
4. COc1cc(OC)c(C(=O)/C=C/c2ccncc2)cc1C(=O)O

Resp:
[2.8, 23.6, -7.85, 10.1]
